All figures here come from patent US20260250290A1.

biological target: full length SGK1 (Homo sapiens, UniProt O00141); construct: 125 μM full length SGK1 (Life Technologies Part #PR7358A); purchased Life Technologies PR7358A; test: SGK1 inhibition Assay A (Caliper LabChip electrophoretic separation of fluorescent peptide substrate and phosphorylated product); type: biochemical; details: Assay A; 20 μM ATP, 40 min incubation; read-out: SGK1 IC50
Sequence (O00141 whole entry): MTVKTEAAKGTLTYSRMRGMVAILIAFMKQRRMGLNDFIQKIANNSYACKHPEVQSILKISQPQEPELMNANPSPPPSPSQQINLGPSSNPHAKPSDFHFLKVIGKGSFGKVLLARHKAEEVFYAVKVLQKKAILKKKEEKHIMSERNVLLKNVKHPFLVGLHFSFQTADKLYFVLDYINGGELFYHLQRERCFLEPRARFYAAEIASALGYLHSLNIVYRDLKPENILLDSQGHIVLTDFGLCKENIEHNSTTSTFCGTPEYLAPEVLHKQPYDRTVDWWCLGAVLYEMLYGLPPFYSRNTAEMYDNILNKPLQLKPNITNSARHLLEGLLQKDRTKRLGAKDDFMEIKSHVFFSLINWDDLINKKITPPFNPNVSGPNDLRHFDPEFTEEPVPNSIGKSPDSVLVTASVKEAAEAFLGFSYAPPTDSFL
pIC50: −log10 of the molar value. Structures can show the parent of a compound that is named as a salt.
Would you please tag the item condition met when its pIC50 is 8 or above, and condition not met when it is below?

[
  {
    "compound": "CC(=O)N1CC=C(c2cc(N3CCC[C@@H](NC(=O)c4ccc(-c5ccnc(C(F)F)c5)s4)C3)c3c(N)ncnn23)C1",
    "discrete label": "condition met"
  },
  {
    "compound": "COc1ccc(C(=O)NC2CCCN(c3cc(-c4ccc(S(C)(=O)=O)cc4)n4ncnc(N)c34)C2)cc1 (stereo not shown) [Example 8, TFA]",
    "discrete label": "condition not met"
  },
  {
    "compound": "CC(=O)N1CC=C(c2cc(N3CCC[C@@H](NC(=O)c4cccc(NCC5CN(C)C5)n4)C3)c3c(N)ncnn23)C1",
    "discrete label": "condition not met"
  },
  {
    "compound": "CC(=O)N1CC=C(c2cc(N3CCC[C@@H](NC(=O)c4ccncc4)C3)c3c(N)ncnn23)C1",
    "discrete label": "condition not met"
  },
  {
    "compound": "Nc1ncnn2c(-c3ccc(-n4cncn4)nc3)cc(N3CCC[C@@H](NC(=O)c4ccc(Cl)s4)C3)c12 [Example 251, TFA]",
    "discrete label": "condition met"
  },
  {
    "compound": "Cc1ccc(C(=O)NC2CCCN(c3cc(-c4ccc(S(C)(=O)=O)cc4)n4ncnc(N)c34)C2)cc1 (stereo not shown) [Example 7, TFA]",
    "discrete label": "condition not met"
  },
  {
    "compound": "CS(=O)(=O)c1ccc(-c2cc(N3CCC[C@@H](NC(=O)c4ccnnc4)C3)c3c(N)ncnn23)cc1",
    "discrete label": "condition not met"
  }
]
